# Tested on: LG0703-F948-PDC complex spheroid viability;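 further: spheroids exposed to agents for 7 days; 100% = DMSO vehicle wells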
# Run Description: Anticancer human tumor LG0703-F948-PDC patient-derived lung adenocarcinoma cell line growth inhibition [RAS]
# Conditions Used: second compound 0.1 µM; first compound 0.003 µM; active compounds read low
Readout Type: viability, T/C

compound="CC1(C)CCC(Nc2ncc(C(F)(F)F)c(-c3c[nH]c4c(P(C)(C)=O)c(C#N)ccc34)n2)CN1 (centres undefined) + C#Cc1c(F)ccc2cc(O)cc(-c3ncc4c(N5CC6CCC(C5)N6)nc(OCC56CCCN5CC(F)C6)nc4c3F)c12" reported_result=80.7%
compound="CC1(C)CCC(Nc2ncc(C(F)(F)F)c(-c3c[nH]c4c(P(C)(C)=O)c(C#N)ccc34)n2)CN1 (centres undefined) + C=CC(=O)N1CCN(c2nc(OCC3CCCN3C)nc3c(F)c(-c4nc(N)cc(C)c4C(F)(F)F)c(Cl)cc23)C(C)C1" reported_result=77.1%
compound="CCc1c2c(nc3ccc(O)cc13)-c1cc3c(c(=O)n1C2)COC(=O)[C@]3(O)CC + C#Cc1c(F)ccc2cc(O)cc(-c3ncc4c(N5CC6CCC(C5)N6)nc(OCC56CCCN5CC(F)C6)nc4c3F)c12" reported_result=91.1%
compound="CCc1c2c(nc3ccc(O)cc13)-c1cc3c(c(=O)n1C2)COC(=O)[C@]3(O)CC + C=CC(=O)N1CCN(c2nc(OCC3CCCN3C)nc3c(F)c(-c4nc(N)cc(C)c4C(F)(F)F)c(Cl)cc23)C(C)C1" reported_result=103%

Just for reference, PubChem BioAssay AID2060890 is where these values come from.
